- Tested on: L1210 leukemia ip in BDF1 mice, survival T/C
- Test: NCI In Vivo Anticancer Drug Screen. Data for tumor model L1210 Leukemia (intraperitoneal) in B6D2F1 (BDF1) mice
- Study Conditions: endpoint: mean survival time; dose: 200.0 mg/kg/injection; schedule: Q01DX001 (ip); vehicle: saline
Inconclusive results and toxic doses are left out. Cut-off read from the data, not from the text of the source: active = T/C of 150% or more; inactive = T/C below 125%.
Respond with a class label; see yes (1) for active, no (0) for inactive

Here's what some known entries look like.
[[record]]
compound = "CCOC(=O)C1=C(C(=O)OCC)C2(c3ccccc3)NC1(c1ccccc1)c1ccccc12"
assigned_label = "no (0)"

[[record]]
compound = "COc1ccc(/C=C2\\CSC(=O)NC2=O)cc1OC"
assigned_label = "no (0)"

[[record]]
compound = "O=C(O)CCC(=O)c1ccc2ccc3cccc4ccc1c2c34"
assigned_label = "no (0)"

[[record]]
compound = "C=CCOP(=O)(N1CC1C)N1CC1C (configuration not stated)"
assigned_label = "yes (1)"

[[record]]
compound = "Cc1[nH]ccc2cc3nc4ccccc4c3cc12"
assigned_label = "no (0)"

[[record]]
compound = "O=C1c2ccccc2C(=O)c2c(Nc3ccc(S(=O)(=O)N(CCO)CCO)cc3)ccc(O)c21"
assigned_label = "no (0)"


Query: Hi team, can someone confirm the assay call for CCNc1nnnn1-c1ccccc1 ?
Result: no (0)

Query: Recorded call for C#CC(C)(O)CC(C)C (configuration not stated) ?
Result: no (0)

Query: Write down the call the test reported for this compound. Item: COc1ccc(C(C#N)C(O)(c2ccccc2)c2ccccc2)cc1 (configuration not stated)
Result: no (0)

Query: Hi, do you know how CNNP1(=O)OCC(C)([N+](=O)[O-])CO1 (configuration not stated) came out in this test?
Result: no (0)

Query: I would be grateful if you could indicate the recorded call for CC1COCCCCCC(=O)C1 (configuration not stated) .
Result: no (0)

Query: Record request — test call for CCOC(=O)NN(C(=O)OCC)c1c(N(C)NC(C)=O)nc(N)[nH]c1=O
Result: no (0)

Query: Lab log entry: COc1ccc2nc3cc(Cl)ccc3c(NCCCCCN3CCCCC3)c2c1 — outcome as called in the assay?
Result: no (0)

----------
- Test system: L1210 leukemia ip in BDF1 mice, survival T/C
- Test: NCI In Vivo Anticancer Drug Screen. Data for tumor model L1210 Leukemia (intraperitoneal) in B6D2F1 (BDF1) mice
- Study Conditions: endpoint: mean survival time; dose: 6.25 mg/kg/injection; schedule: Q01DX009 (ip); vehicle: saline; higher = longer survival
Inconclusive results and toxic doses are left out.
Assay Metric: T/C

In the examples that follow, each entry is paired with its recorded T/C.
[[record]]
molecule = "CC(C)(c1ccccc1)[N+](C)(C)C"
target_system = "L1210 leukemia ip in BDF1 mice, survival T/C"
assay_metric = "T/C"
value_observed = "97 % of control"

[[record]]
molecule = "Cc1cccc(NC(=O)CCc2ccc(N3C(N)=NC(N)=NC3(C)C)cc2)c1"
target_system = "L1210 leukemia ip in BDF1 mice, survival T/C"
assay_metric = "T/C"
value_observed = "94 % of control"

[[record]]
molecule = "CNC(C)CC1CCCCC1 (centres undefined)"
target_system = "L1210 leukemia ip in BDF1 mice, survival T/C"
assay_metric = "T/C"
value_observed = "97 % of control"


Please examine the following record next.
Query: Value lookup for T/C; key = CC(N)Cc1ccccc1 (centres undefined)
Result: 103 % of control
